Experiment: LogP value in octanol/water
Conditions: octanol/water, LogP; Table 1
measured property: logP
Numbers only.

[
  {
    "compound": "CN(C)CCO [drawing 17]",
    "logP": -0.29
  }
]

Ask: Would you mind telling me what logP value was observed for CCCCOCCO ?
Result: 1.01

###

Test: LogP value in octanol/water
Conditions: octanol/water
Strictly below 0.01 in logP: 1 (yes). Otherwise: 0 (no).

[
  {
    "compound": "CN1CCCC1=O",
    "class name": "0 (no)"
  },
  {
    "compound": "C1COCCO1 [drawing 23]",
    "class name": "1 (yes)"
  },
  {
    "compound": "CN1CCCCC1=O",
    "class name": "0 (no)"
  },
  {
    "compound": "O=C1CCCCN1",
    "class name": "0 (no)"
  },
  {
    "compound": "CC(C)CO",
    "class name": "0 (no)"
  }
]

Ask: Dear colleague, could you confirm whether logP of CCOCCO falls below 0.01? Thanks.
Result: 1 (yes)

Ask: # repeat for CO
Result: 1 (yes)

Ask: Also check CCCCC(CC)CO (centres unmarked)
Result: 0 (no)

Ask: Input CNC(=O)NC
Result: 1 (yes)

###

Assay: LogP value in octanol/water
Settings: octanol/water, LogP, Table 7; of the low LogP molecule type
measured property: logP
Answers are plain numbers.

Ask: Looking for the measured logP of O=C1CCCO1 [Butryolactone, butyrolactone] , can you help?
Result: -0.59

###

Experiment: LogP value in octanol/water
Details: octanol/water; Table 1
measured property: logP
Answers are plain numbers.

Before answering, review these 3 worked examples.
[
  {
    "compound": "O=C1CCCN1",
    "value measured": "−0.18"
  },
  {
    "compound": "O=C1COCCN1",
    "value measured": "−0.49"
  },
  {
    "compound": "CCCCC(CC)CO (centres unmarked)",
    "value measured": 2.87
  }
]

# map each compound to its logP
1. O=C1CCCO1 [drawing 12]
2. CO

Result:
["−0.57", "−0.32"]

###

Experiment: LogP value in octanol/water
Settings: octanol/water
The threshold is inclusive: logP of exactly 0.4 counts as yes (1); values below receive no (0).

[
  {
    "compound": "O=C1OCCO1",
    "class name": "no (0)"
  },
  {
    "compound": "COCC(C)OC(C)=O (centres unmarked)",
    "class name": "yes (1)"
  }
]

Ask: Please indicate if the recorded logP for CC1COC(=O)O1 (centres unmarked) meets or exceeds 0.4.
Result: no (0)

Ask: // same read-out, input: O=C1COCCN1
Result: no (0)

Ask: What about O=C1CCCN1 ?
Result: no (0)
